Molecular target: T1, TNFR1 (Homo sapiens, UniProt P19438)
T1 chain: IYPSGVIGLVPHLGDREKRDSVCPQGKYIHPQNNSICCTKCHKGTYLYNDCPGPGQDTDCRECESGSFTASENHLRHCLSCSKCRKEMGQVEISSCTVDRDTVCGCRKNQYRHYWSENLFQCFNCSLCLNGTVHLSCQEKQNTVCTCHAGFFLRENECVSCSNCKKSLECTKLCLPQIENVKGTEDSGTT
Test: yeast display SC50
Property: apparent Kd (screen) (nM)

[[record]]
binder = "K35N (designed binder) MTLQELLREEALRRAEAEAFRYALELLAEKFPEQNEYLLDLAEEIESQIRSLSGVDVEDVRKFLDKEWAWVKELLAEHPAELAEVEAARAARLAELRAEVEAKVAA"
property = "apparent Kd (screen)"
meas_value = 0.405

[[record]]
binder = "R50A (designed binder) MTLQELLREEALRRAEAEAFRYALELLAEKFPEQKEYLLDLAEEIESQIASLSGVDVEDVRKFLDKEWAWVKELLAEHPAELAEVEAARAARLAELRAEVEAKVAA"
property = "apparent Kd (screen)"
meas_value = 0.539

[[record]]
binder = "P79T (designed binder) MTLQELLREEALRRAEAEAFRYALELLAEKFPEQKEYLLDLAEEIESQIRSLSGVDVEDVRKFLDKEWAWVKELLAEHTAELAEVEAARAARLAELRAEVEAKVAA"
property = "apparent Kd (screen)"
meas_value = 0.653

[[record]]
binder = "E44I (designed binder) MTLQELLREEALRRAEAEAFRYALELLAEKFPEQKEYLLDLAEIIESQIRSLSGVDVEDVRKFLDKEWAWVKELLAEHPAELAEVEAARAARLAELRAEVEAKVAA"
property = "apparent Kd (screen)"
meas_value = 0.869

[[record]]
binder = "A98G (designed binder) MTLQELLREEALRRAEAEAFRYALELLAEKFPEQKEYLLDLAEEIESQIRSLSGVDVEDVRKFLDKEWAWVKELLAEHPAELAEVEAARAARLAELRGEVEAKVAA"
property = "apparent Kd (screen)"
meas_value = 0.718

[[record]]
binder = "L41I (designed binder) MTLQELLREEALRRAEAEAFRYALELLAEKFPEQKEYLLDIAEEIESQIRSLSGVDVEDVRKFLDKEWAWVKELLAEHPAELAEVEAARAARLAELRAEVEAKVAA"
property = "apparent Kd (screen)"
meas_value = 2.73

[[record]]
binder = "E86G (designed binder) MTLQELLREEALRRAEAEAFRYALELLAEKFPEQKEYLLDLAEEIESQIRSLSGVDVEDVRKFLDKEWAWVKELLAEHPAELAEVGAARAARLAELRAEVEAKVAA"
property = "apparent Kd (screen)"
meas_value = 0.539

[[record]]
binder = "A102P (designed binder) MTLQELLREEALRRAEAEAFRYALELLAEKFPEQKEYLLDLAEEIESQIRSLSGVDVEDVRKFLDKEWAWVKELLAEHPAELAEVEAARAARLAELRAEVEPKVAA"
property = "apparent Kd (screen)"
meas_value = 0.956

